# Tested on: HuTu80 (Stomach)
# assay-notes: MTT cytotoxicity assay, 48 hours (Example 14)
# Format: cell-based, human
# cond: HuTu80, 10 pM
Non-standard residues stand in square brackets, D forms with d. Residues, ends and D or L forms follow the SMILES beside them. *: point of attachment. Octanoyl = CCCCCCCC(=O)*; Deg = CCC(N)(CC)C(=O)O; Aib = CC(C)(N)C(=O)O; Butyryl = CCCC(=O)*
We begin with a simple list: items and their reported Percentage cytotoxicity.
A number alone suffices; assume %.

Sample records with Percentage cytotoxicity:
CCC(CC)(NC(=O)[C@H](Cc1c[nH]c2ccccc12)NC(=O)[C@H](CCC(N)=O)NC(=O)[C@H](N)Cc1ccccc1)C(=O)N[C@H](C(=O)NCC(=O)N[C@@H](Cc1c[nH]cn1)C(=O)N[C@@H](CC(C)C)C(N)=O)C(C)C [SEQ ID: 9, D-Phe-Gln-Trp-Deg-Val-Gly-His-Leu-NH2] (H-[dF]QW[Deg]VGHL-NH2; N-terminus assumed); 19.5
CCCC(=O)N[C@H](Cc1ccccc1)C(=O)N[C@@H](CCC(N)=O)C(=O)N[C@@H](Cc1c[nH]c2ccccc12)C(=O)N[C@@H](C)C(=O)N[C@H](C(=O)NC(C)(C)C(=O)N[C@@H](Cc1c[nH]cn1)C(=O)N[C@@H](CC(C)C)C(N)=O)C(C)C [SEQ ID: 11] (Butyryl-[dF]QWAV[Aib]HL-NH2); 17.6

Here's the next entry for you.
Problem: Give its Percentage cytotoxicity value. Item: CCCCCCCC(=O)N[C@H](Cc1ccccc1)C(=O)N[C@@H](CCC(N)=O)C(=O)N[C@@H](Cc1c[nH]c2ccccc12)C(=O)N[C@@H](C)C(=O)N[C@H](C(=O)NC(C)(C)C(=O)N[C@@H](Cc1c[nH]cn1)C(=O)N[C@@H](CC(C)C)C(N)=O)C(C)C [SEQ ID: 12] (Octanoyl-[dF]QWAV[Aib]HL-NH2)
Solution: 8.3

---

# System: KB (oral squamous)
# assay-notes: MTT cytotoxicity assay, 48 hours (Example 14)
# Type: cell-based, human
# cond: 10 pM
Non-standard residues stand in square brackets, D forms with d. Residues, ends and D or L forms follow the SMILES beside them. *: point of attachment. Octanoyl = CCCCCCCC(=O)*; Ac5c = NC1(C(=O)O)CCCC1; Deg = CCC(N)(CC)C(=O)O; Aib = CC(C)(N)C(=O)O; Butyryl = CCCC(=O)*
Percentage cytotoxicity reference
Form entry: value (%) — number only.

CCCC(=O)N[C@H](Cc1ccccc1)C(=O)N[C@@H](CCC(N)=O)C(=O)N[C@@H](Cc1c[nH]c2ccccc12)C(=O)N[C@@H](C)C(=O)N[C@H](C(=O)NC(C)(C)C(=O)N[C@@H](Cc1c[nH]cn1)C(=O)N[C@@H](CC(C)C)C(N)=O)C(C)C [SEQ ID: 11] (Butyryl-[dF]QWAV[Aib]HL-NH2); 21.6
CCC(CC)(NC(=O)[C@H](Cc1c[nH]c2ccccc12)NC(=O)[C@H](CCC(N)=O)NC(=O)[C@H](N)Cc1ccccc1)C(=O)N[C@H](C(=O)NCC(=O)N[C@@H](Cc1c[nH]cn1)C(=O)N[C@@H](CC(C)C)C(N)=O)C(C)C [SEQ ID: 9, D-Phe-Gln-Trp-Deg-Val-Gly-His-Leu-NH2] (H-[dF]QW[Deg]VGHL-NH2; N-terminus assumed); 20.6
CCCCCCCC(=O)N[C@H](Cc1ccccc1)C(=O)N[C@@H](CCC(N)=O)C(=O)N[C@@H](Cc1c[nH]c2ccccc12)C(=O)N[C@@H](C)C(=O)N[C@H](C(=O)NC(C)(C)C(=O)N[C@@H](Cc1c[nH]cn1)C(=O)N[C@@H](CC(C)C)C(N)=O)C(C)C [SEQ ID: 12] (Octanoyl-[dF]QWAV[Aib]HL-NH2); 19.3

Please find the next compound below.
Problem: # input compound: CC(C)C[C@H](NC(=O)[C@H](Cc1c[nH]cn1)NC(=O)C1(NC(=O)[C@@H](NC(=O)[C@H](C)NC(=O)[C@H](Cc2c[nH]c3ccccc23)NC(=O)[C@H](CCC(N)=O)NC(=O)[C@H](N)Cc2ccccc2)C(C)C)CCCC1)C(N)=O [SEQ ID: 10, D-Phe-Gln-Trp-Ala-Val-Ac5c-His-Leu-NH2] (H-[dF]QWAV[Ac5c]HL-NH2; N-terminus assumed) ; wanted: its Percentage cytotoxicity
Solution: 19.2
